Exercise: state measured AB-3167 (MIC) for each of the compounds provided.
tested on: Acinetobacter baumanii/haemolyticus: Multidrug-resistant clinical isolate (AB-3167); experiment: MIC determination (CLSI), strain AB-3167; format: cell-based; settings: unit assumed
Give bare numbers, in µg/mL.

CCC(CCn1ccc(-c2ccccc2)cc1=O)(C(=O)NO)S(C)(=O)=O (stereo not shown)	64

API: the following record is the query input.
Problem: Give the measured AB-3167 (MIC) of C[C@@](CCn1ccc(-c2ccc(OC(F)(F)[C@H]3CC[C@H](O)CC3)cc2)cc1=O)(C(=O)NO)S(C)(=O)=O .
Result: 32

---

tested on: Acinetobacter baumanii/haemolyticus: Multidrug-resistant clinical isolate (AB-3167); test: MIC determination (CLSI), strain AB-3167; format: cell-based; details: unit assumed
value-kind: AB-3167 (MIC)

CC(CCn1ccc(OCc2ccccc2)cc1=O)(C(=O)NO)S(C)(=O)=O (stereo not shown)	> 64 µg/mL
Cc1cc(-c2ccn(CC[C@](C)(C(=O)NO)S(C)(=O)=O)c(=O)c2)ccc1-c1cc(CO)no1	> 64 µg/mL
C[C@@](CCn1ccc(-c2cccc(F)c2)cc1=O)(C(=O)NO)S(C)(=O)=O	> 64 µg/mL

Problem: Give the measured AB-3167 (MIC) of COc1ccc2cc(-c3ccn(CCC(C)(C(=O)NO)S(C)(=O)=O)c(=O)c3)ccc2c1 (racemic) .
Result: 8 µg/mL

The measured values listed here are drawn from patent US8846933B2.
